These data points were gathered from PubChem BioAssay AID2060486.

# Test system: IGROV1 complex spheroids (HUVEC, MSC), viability % test/control
# MEASUREMENT PROTOCOL: Anticancer human tumor IGROV1 cell line growth inhibition [GQUAD]; active means viability on the fitted dose curve at most 10% of control; inactive means the rest;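 further: spheroids exposed to compounds for 7 days before readout; 100% = DMSO vehicle control viability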
# CONDITION NOTES: second compound 10 µM; first compound 10 µM
Please reply with one of these outcomes: yes (active), no (inactive)

(Q) Recorded test call requested for COc1ccc([C@@H](O)c2cc(-c3ncnc4cc(N5CCOCC5)ccc34)c(F)cc2Cl)nn1 + CN(C)c1ccc(Nc2c3ccc(NC(=O)CCN4CCCC4)cc3nc3cc(NC(=O)CCN4CCCC4)ccc23)cc1
(A) yes

(Q) Recorded test call requested for Cc1cccc(N(C)C(=O)C2C(O)CCN2c2nc(C)cc(C(F)(F)F)c2C#N)c1 (stereo not given) + Cc1cnc(CNC(=O)c2c(=O)c3ccc(N4CCCN(C)CC4)nc3n3c2sc2ccccc23)cn1
(A) no

(Q) Recorded test call requested for CC1COCCN1c1cc(C2(S(C)(=N)=O)CC2)nc(-c2ccnc3[nH]ccc23)n1 (stereo not given) + CN(C)c1ccc(Nc2c3ccc(NC(=O)CCN4CCCC4)cc3nc3cc(NC(=O)CCN4CCCC4)ccc23)cc1
(A) yes

(Q) Recorded test call requested for CC1COCCN1c1cc(C2(O)CC3CCC(C2)O3)c2cnn(-c3ccn[nH]3)c2n1 (stereo not given) + Cc1cnc(CNC(=O)c2c(=O)c3ccc(N4CCCN(C)CC4)nc3n3c2sc2ccccc23)cn1
(A) yes

(Q) Recorded test call requested for C=CCn1c(=O)c2cnc(Nc3ccc(N4CCN(C)CC4)cc3)nc2n1-c1cccc(C(C)(C)O)n1 + Cc1cnc(CNC(=O)c2c(=O)c3ccc(N4CCCN(C)CC4)nc3n3c2sc2ccccc23)cn1
(A) yes

---

# System: IGROV1 complex spheroids (HUVEC, MSC), viability % test/control
# MEASUREMENT PROTOCOL: Anticancer human tumor IGROV1 cell line growth inhibition [GQUAD];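 further: spheroids exposed to compounds for 7 days before readout; 100% = DMSO vehicle control viability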
# CONDITION NOTES: second compound 0.316 µM; first compound 3.16 µM; hits give low values
Provide the reported viability, T/C of each item.

Example results:
[[record]]
molecule = "CC1COCCN1c1cc(C2(O)CC3CCC(C2)O3)c2cnn(-c3ccn[nH]3)c2n1 (stereo not given) + Cc1[nH]c2ccc(F)cc2c1-c1nc2c3cccnc3c3ncccc3c2[nH]1"
assay_endpoint = "viability, T/C"
test_result = "3.28%"

[[record]]
molecule = "CC(C)(O)C1CCC(Nc2ccc3ncc(-c4cccc(C(F)(F)F)c4)n3n2)CC1 (stereo not given) + Cc1cnc(CNC(=O)c2c(=O)c3ccc(N4CCCN(C)CC4)nc3n3c2sc2ccccc23)cn1"
assay_endpoint = "viability, T/C"
test_result = "14.8%"

[[record]]
molecule = "COc1ncnc(C2CC2)c1-c1ncc2cnn(Cc3ccc(-c4nc(C(F)(F)F)cn4C(C)C)cc3)c2n1 + CN(C)c1ccc(Nc2c3ccc(NC(=O)CCN4CCCC4)cc3nc3cc(NC(=O)CCN4CCCC4)ccc23)cc1"
assay_endpoint = "viability, T/C"
test_result = "93.2%"

[[record]]
molecule = "O=C(NO)c1cnc(N2CCN(S(=O)(=O)c3ccc4ccccc4c3)CC2)nc1 + CN(C)c1ccc(Nc2c3ccc(NC(=O)CCN4CCCC4)cc3nc3cc(NC(=O)CCN4CCCC4)ccc23)cc1"
assay_endpoint = "viability, T/C"
test_result = "0.06%"


Moving on to another molecule below.
(Q) Provide one value: measured viability, T/C of COc1cc(C2c3cc4c(cc3C(OC3OC5COC(C)OC5C(O)C3O)C3COC(=O)C23)OCO4)cc(OC)c1O (stereo not given) + Cc1[nH]c2ccc(F)cc2c1-c1nc2c3cccnc3c3ncccc3c2[nH]1
(A) 7.51%
